// data source = patent US20020016346A1

logP by entry:
assay: Lipophilicity (log P′), n-octanol/phosphate buffer pH 7.4 shake-flask or RP-HPLC; type: physicochemical

Solved entries (count: 5):
O=C(NC1CCCCCC1)NS(=O)(=O)c1cnccc1NC1CCCCC1 [Compound 12]
1.72
CC(C)NC(=O)NS(=O)(=O)c1cnccc1NC1CCCCC1 [Compound 8]
0.58
O=C(NS(=O)(=O)c1cnccc1NC1CCCCC1)N1CCCCC1 [Compound 21]
0.62
O=C(NC1CCCCCCC1)NS(=O)(=O)c1cnccc1NC1CCCCC1 [Compound 15]
2.07
O=C(NC1CCCCC1)NS(=O)(=O)c1cnccc1NC1CCCCC1 [Compound 9]
1.33

Request: Returns the measured logP for the input compound. Input: O=C(NC1CCCCC1)NS(=O)(=O)c1cnccc1NC1CCCCCCC1 [Compound 11]
Response: 2.05

Request: Do the same for O=C(NC1CCCCC1)NS(=O)(=O)c1cnccc1NC1CCCCCC1 [Compound 10] please
Response: 1.67

Request: Do the same for CC(C)NC(=S)NS(=O)(=O)c1cnccc1NC1CCCCCC1 [Compound 19] please
Response: 0.96
